Data provenance: ChEMBL document CHEMBL1141459

method notes: Therapeutic index, ratio of ED50 in rotor rod test in rat to ED50 in rat kindling model of epileptic seizures
measurement setup: read-out: TI
measurement label: selectivity ratio
Answer with a bare number; do not write a unit.

Exercise: Can you share its selectivity ratio? I mean this compound: CCOC(=O)Nc1ccc(NCc2ccc(F)cc2)cc1N [EZOGABINE]
Key: 4

###

system under test: Potassium voltage-gated channel subfamily KQT member 2 (Homo sapiens)
Sequence (O43526 whole entry): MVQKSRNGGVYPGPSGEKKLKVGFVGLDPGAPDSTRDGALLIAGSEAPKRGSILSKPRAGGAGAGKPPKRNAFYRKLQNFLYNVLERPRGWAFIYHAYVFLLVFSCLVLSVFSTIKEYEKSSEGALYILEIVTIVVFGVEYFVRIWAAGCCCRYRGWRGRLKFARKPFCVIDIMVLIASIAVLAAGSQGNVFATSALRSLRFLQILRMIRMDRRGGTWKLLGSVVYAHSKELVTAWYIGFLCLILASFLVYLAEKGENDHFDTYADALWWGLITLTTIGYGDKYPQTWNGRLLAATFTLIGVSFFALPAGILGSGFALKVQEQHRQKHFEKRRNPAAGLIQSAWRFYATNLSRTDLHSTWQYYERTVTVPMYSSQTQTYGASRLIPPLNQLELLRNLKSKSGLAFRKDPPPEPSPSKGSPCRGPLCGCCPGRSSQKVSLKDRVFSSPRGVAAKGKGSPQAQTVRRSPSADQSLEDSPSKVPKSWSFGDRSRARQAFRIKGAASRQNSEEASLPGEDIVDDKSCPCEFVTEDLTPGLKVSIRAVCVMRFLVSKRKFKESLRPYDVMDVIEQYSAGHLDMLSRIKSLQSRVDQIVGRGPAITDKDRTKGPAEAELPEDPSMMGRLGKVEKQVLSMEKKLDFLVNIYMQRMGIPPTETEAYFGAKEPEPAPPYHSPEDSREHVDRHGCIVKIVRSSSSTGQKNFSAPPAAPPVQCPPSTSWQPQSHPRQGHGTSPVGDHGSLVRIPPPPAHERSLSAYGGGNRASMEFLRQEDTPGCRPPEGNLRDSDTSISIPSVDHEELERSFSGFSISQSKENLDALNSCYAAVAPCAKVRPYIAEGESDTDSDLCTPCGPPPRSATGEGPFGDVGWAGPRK
method notes: Activity at Kv 7.2 channel expressed in cloned CHO cells by [86Rb] efflux assay
pEC50: −log10 of the molar value.
measurement label: pEC50

Exercise: Can you share its pEC50? I mean this compound: CCOC(=O)Nc1ccc(NCc2ccc(F)cc2)cc1N [EZOGABINE]
Key: > 6.82
